// provenance: patent US20230416256A1

Tested on: p-IKKα levels in L363 (NIK translocated multiple myeloma) cells
Procedure Summary: Effect of compounds on p-IKKα levels in L363 cells (AlphaLISA SureFire Ultra)
Assay type: cell-based, human
Settings: Homo sapiens, L-363, 6 h, 250 ng/ml BAFF stimulated, 10 μM MG132, 6 h, average of values obtained, read-out: Assay 2 IC50
Measurement Label: IC50

compound="C[C@]1(O)C[C@@](O)(c2cccc(-c3csc(-c4c[nH]c5ncccc45)n3)c2)c2ncccc21 (single isomer, unassigned)" measurement_label=IC50 endpoint_result="> 500 nM"
compound=O[C@@]1(c2cccc(-c3csc(-c4c[nH]c5nnccc45)n3)c2)CCn2ccnc21 measurement_label=IC50 endpoint_result="> 500 nM"
compound="O[C@@]1(c2cccc(-c3csc(-c4c[nH]c5ncccc45)n3)c2)CCc2cccnc21 (single isomer, unassigned)" measurement_label=IC50 endpoint_result="100 to 500 nM"
compound="O[C@]1(c2cccc(-c3csc(-c4c[nH]c5ncccc45)n3)c2)CCCn2ccnc21 (single isomer, unassigned)" measurement_label=IC50 endpoint_result="> 500 nM"
compound=O[C@@]1(c2cccc(-c3coc(-c4c[nH]c5ncccc45)c3)c2)CCn2ccnc21 measurement_label=IC50 endpoint_result="> 500 nM"
compound="CC1(C)Cc2cccnc2[C@]1(O)c1cccc(-c2csc(-c3c[nH]c4ncccc34)n2)c1 (single isomer, unassigned)" measurement_label=IC50 endpoint_result="> 500 nM"
compound=[2H]c1[nH]c2nccnc2c1-c1nc(-c2cccc([C@]3(O)CCn4ccnc43)c2)cs1 measurement_label=IC50 endpoint_result="≤ 100 nM"
compound=O[C@@]1(c2cccc(-c3csc(-c4n[nH]c5ncccc45)n3)c2)CCn2ccnc21 measurement_label=IC50 endpoint_result="> 500 nM"
compound=O[C@@]1(c2cccc(-c3csc(-c4c[nH]c5ncncc45)n3)c2)CCn2ccnc21 measurement_label=IC50 endpoint_result="≤ 100 nM"
compound=O[C@]1(c2cccc(-c3nc(-c4c[nH]c5ncccc45)cs3)c2)CCn2ccnc21 measurement_label=IC50 endpoint_result="> 500 nM"
compound=O[C@@]1(c2cccc(-c3csc(-c4c[nH]c5nccnc45)n3)c2)CCn2ccnc21 measurement_label=IC50 endpoint_result="≤ 100 nM"
compound=O[C@@]1(c2cccc(-c3csc(-c4c[nH]c5ncc(F)cc45)n3)c2)CCn2ccnc21 measurement_label=IC50 endpoint_result="≤ 100 nM"
compound="O[C@]1(c2cccc(-c3nc(-c4c[nH]c5ncccc45)cs3)c2)CCc2cccnc21 (single isomer, unassigned)" measurement_label=IC50 endpoint_result="> 500 nM"
compound="O[C@@]1(c2cccc(-c3csc(-c4c[nH]c5ncccc45)n3)c2)CCc2scnc21 (single isomer, unassigned)" measurement_label=IC50 endpoint_result="≤ 100 nM"
compound=O[C@]1(c2cccc(-c3nc(-c4c[nH]c5ncccc45)cs3)c2)CCc2scnc21 measurement_label=IC50 endpoint_result="> 500 nM"
compound="C[C@@]1(O)C[C@](O)(c2cccc(-c3csc(-c4c[nH]c5ncccc45)n3)c2)c2ncccc21 (single isomer, unassigned)" measurement_label=IC50 endpoint_result="> 500 nM"
compound="O[C@]1(c2cccc(-c3csc(-c4c[nH]c5ncncc45)n3)c2)CCc2cccnc21 (single isomer, unassigned)" measurement_label=IC50 endpoint_result="> 500 nM"
compound="C[C@@](O)(c1cccc(-c2csc(-c3c[nH]c4nccnc34)n2)c1)c1ncc[nH]1 (single isomer, unassigned)" measurement_label=IC50 endpoint_result="> 500 nM"
compound="CC1(C)Cc2cccnc2[C@@]1(O)c1cccc(-c2csc(-c3c[nH]c4ncccc34)n2)c1 (single isomer, unassigned)" measurement_label=IC50 endpoint_result="> 500 nM"
compound=O[C@@]1(c2cccc(-c3nc(-c4c[nH]c5ncccc45)cs3)c2)CCn2ccnc21 measurement_label=IC50 endpoint_result="100 to 500 nM"
compound=O[C@]1(c2cccc(-c3nc(-c4c[nH]c5nccnc45)cs3)c2)CCn2ccnc21 measurement_label=IC50 endpoint_result="> 500 nM"
compound=CS(=O)(=O)c1cnc2[nH]cc(-c3nc(-c4cccc([C@]5(O)CCn6ccnc65)c4)cs3)c2c1 measurement_label=IC50 endpoint_result="100 to 500 nM"
compound="O[C@@]1(c2cccc(-c3csc(-c4c[nH]c5ncccc45)n3)c2)CCCn2ccnc21 (single isomer, unassigned)" measurement_label=IC50 endpoint_result="≤ 100 nM"
compound=Cc1ccnc2[nH]cc(-c3nc(-c4cccc([C@]5(O)CCn6ccnc65)c4)cs3)c12 measurement_label=IC50 endpoint_result="> 500 nM"
compound=[2H]c1cnc2[nH]cc(-c3nc(-c4cccc([C@@]5(O)CCn6ccnc65)c4)cs3)c2n1 measurement_label=IC50 endpoint_result="> 500 nM"
compound=C[C@@]1(O)C[C@@](O)(c2cccc(-c3csc(-c4c[nH]c5ncccc45)n3)c2)c2ncccc21 measurement_label=IC50 endpoint_result="> 500 nM"
compound=O[C@@]1(c2cccc(-c3csc(-c4c[nH]c5nccc(F)c45)n3)c2)CCn2ccnc21 measurement_label=IC50 endpoint_result="≤ 100 nM"
compound="O[C@@]1(c2cccc(-c3nc(-c4c[nH]c5ncccc45)cs3)c2)CCc2cccnc21 (single isomer, unassigned)" measurement_label=IC50 endpoint_result="100 to 500 nM"

----------
Tested on: p-IKKα levels in L363 (NIK translocated multiple myeloma) cells
Procedure Summary: Effect of compounds on p-IKKα levels in L363 cells (AlphaLISA SureFire Ultra)
Assay type: cell-based, human
Settings: Homo sapiens, L-363, 6 h, 250 ng/ml BAFF stimulated, 10 μM MG132, 6 h, average of values obtained, read-out: Assay 2 IC50
pIC50: −log10 of the molar value.
Measurement Label: pIC50

compound=[2H]c1[nH]c2nccnc2c1-c1nc(-c2cccc([C@@]3(O)CCn4ccnc43)c2)cs1 measured_target="p-IKKα levels in L363 (NIK translocated multiple myeloma) cells" measurement_label=pIC50 endpoint_result="< 6.30"
compound="O[C@@H]1C[C@@](O)(c2cccc(-c3csc(-c4c[nH]c5ncccc45)n3)c2)c2ncccc21 (single isomer, unassigned)" measured_target="p-IKKα levels in L363 (NIK translocated multiple myeloma) cells" measurement_label=pIC50 endpoint_result="< 6.30"
compound=O[C@@]1(c2cccc(-c3csc(-c4c[nH]c5ncc(Cl)c(F)c45)n3)c2)CCn2ccnc21 measured_target="p-IKKα levels in L363 (NIK translocated multiple myeloma) cells" measurement_label=pIC50 endpoint_result="6.30 to 7.00"
compound="C[C@@](O)(c1cccc(-c2csc(-c3c[nH]c4ncccc34)n2)c1)c1ncc[nH]1 (single isomer, unassigned)" measured_target="p-IKKα levels in L363 (NIK translocated multiple myeloma) cells" measurement_label=pIC50 endpoint_result="< 6.30"
compound="O[C@@]1(c2cccc(-c3csc(-c4c[nH]c5ncncc45)n3)c2)CCc2cccnc21 (single isomer, unassigned)" measured_target="p-IKKα levels in L363 (NIK translocated multiple myeloma) cells" measurement_label=pIC50 endpoint_result="6.30 to 7.00"
compound="O[C@@]1(c2cccc(-c3csc(-c4c[nH]c5ncccc45)n3)c2)C=Cc2cccnc21 (single isomer, unassigned)" measured_target="p-IKKα levels in L363 (NIK translocated multiple myeloma) cells" measurement_label=pIC50 endpoint_result="< 6.30"

----------
Measured Target: recombinant human NF-kappaB-inducing kinase (NIK/MAP3K14) (Homo sapiens, UniProt Q99558)
Sequence (Q99558 whole entry): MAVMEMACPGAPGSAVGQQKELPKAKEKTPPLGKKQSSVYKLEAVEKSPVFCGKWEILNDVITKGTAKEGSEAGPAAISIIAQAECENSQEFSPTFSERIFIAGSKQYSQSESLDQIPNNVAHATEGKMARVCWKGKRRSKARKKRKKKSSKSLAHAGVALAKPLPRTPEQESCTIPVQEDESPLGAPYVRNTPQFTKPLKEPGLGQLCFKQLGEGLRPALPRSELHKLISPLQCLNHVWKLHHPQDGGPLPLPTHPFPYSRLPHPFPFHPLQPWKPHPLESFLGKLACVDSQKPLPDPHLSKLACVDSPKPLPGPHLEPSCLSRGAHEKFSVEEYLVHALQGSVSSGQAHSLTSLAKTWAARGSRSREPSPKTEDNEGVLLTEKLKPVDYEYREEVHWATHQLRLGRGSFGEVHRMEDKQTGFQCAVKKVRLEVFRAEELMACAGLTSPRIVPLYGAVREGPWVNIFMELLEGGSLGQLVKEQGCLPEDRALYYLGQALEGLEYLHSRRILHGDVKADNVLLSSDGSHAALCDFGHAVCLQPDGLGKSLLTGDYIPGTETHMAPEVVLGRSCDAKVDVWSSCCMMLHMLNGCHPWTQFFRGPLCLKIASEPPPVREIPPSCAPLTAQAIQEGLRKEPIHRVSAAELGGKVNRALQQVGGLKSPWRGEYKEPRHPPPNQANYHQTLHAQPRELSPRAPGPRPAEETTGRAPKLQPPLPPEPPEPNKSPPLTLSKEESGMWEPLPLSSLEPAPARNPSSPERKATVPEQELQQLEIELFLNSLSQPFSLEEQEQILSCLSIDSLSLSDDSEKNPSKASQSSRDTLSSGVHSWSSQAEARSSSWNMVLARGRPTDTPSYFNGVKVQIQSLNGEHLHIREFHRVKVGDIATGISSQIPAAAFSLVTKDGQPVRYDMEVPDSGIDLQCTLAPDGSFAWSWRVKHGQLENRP
Procedure Summary: Inhibition of auto-phosphorylation of recombinant human NIK/MAP3K14 activity (AlphaScreen)
Settings: GST-tagged NIK/MAP3K14 1 nM, 5 μM ATP, 2 h at 25° C.; average of values obtained
Quick list: IC50 per entry.
Measurement Label: IC50

molecule=Cc1ccc([C@]2(O)CCN(C)C2=O)cc1-c1csc(-c2c[nH]c3nccnc23)n1 measured_target="recombinant human NF-kappaB-inducing kinase (NIK/MAP3K14) (Homo sapiens, UniProt Q99558)" endpoint_result="≤ 100 nM"
molecule="CN1CC[C@@](O)(c2cccc(-n3ncc(-c4c[nH]c5ncccc45)n3)c2)C1=O (single isomer, unassigned)" measured_target="recombinant human NF-kappaB-inducing kinase (NIK/MAP3K14) (Homo sapiens, UniProt Q99558)" endpoint_result="≤ 100 nM"
molecule=CN1CC[C@@](O)(c2cccc(-c3nc(-c4ccnc5[nH]ccc45)cs3)c2)C1=O measured_target="recombinant human NF-kappaB-inducing kinase (NIK/MAP3K14) (Homo sapiens, UniProt Q99558)" endpoint_result="≤ 100 nM"
molecule=CN1CC[C@@](O)(c2cccc(-c3nc(-c4c[nH]c5ncccc45)sc3C#N)c2)C1=O measured_target="recombinant human NF-kappaB-inducing kinase (NIK/MAP3K14) (Homo sapiens, UniProt Q99558)" endpoint_result="> 500 nM"
molecule=[2H]c1cnc2[nH]cc(-c3nc(-c4cccc([C@]5(O)CCn6ccnc65)c4)cs3)c2n1 measured_target="recombinant human NF-kappaB-inducing kinase (NIK/MAP3K14) (Homo sapiens, UniProt Q99558)" endpoint_result="≤ 100 nM"
molecule=O=C1N(CC(F)(F)F)CC[C@]1(O)c1cccc(-c2csc(-c3c[nH]c4nccnc34)n2)c1 measured_target="recombinant human NF-kappaB-inducing kinase (NIK/MAP3K14) (Homo sapiens, UniProt Q99558)" endpoint_result="> 500 nM"
molecule=CN1CC[C@@](O)(c2cccc(-c3csc(-c4c[nH]c5ncc(F)c(F)c45)n3)c2)C1=O measured_target="recombinant human NF-kappaB-inducing kinase (NIK/MAP3K14) (Homo sapiens, UniProt Q99558)" endpoint_result="≤ 100 nM"
